Source of measurements: the nanobody polyreactivity screen of Harvey et al. (2022)

assay: yeast display, Sf9 membrane polyspecificity reagent, FACS + sequencing; frameworks hold sequencing errors
Measure name: polyreactivity (PSR sort gate)

QVQLQESGRRPGAAGGSPRMSCAASGNIFWVAVMGRYRQAPGKERELVASIGFGCTTYYADSVKCRFTISRDNAKNTVYLQMISLKPEDTAVYYCAAPLYDWGELDYWGQGTQVPVSS    low polyreactivity
QVQLVESGGGLVQAGGSLRLSCAASGRTFGGYTMGWYRQAPGKEREFVAAITWSTGGSTYYADSVKGRFTISRDNAKNTVYLQMNSLKPEDTAVYYCAKDLYLHTYYAYPYRFGSGYYWGLGTQVTVSS    low polyreactivity
QVQLVESGGGLVQAGGSLRLSCAASGRIFYTKTMGWYRQAPGNEWELVAAIRSGTRTDYADSVKGRFTISRDNAKKTVYLQMNSLKPYDTAVSYCNKAAGVTGRYYYWGQGTQVTVSS    low polyreactivity
QVQLVESGGGLVQAGGSLRLSCAASGRIFISYTMGLYRHAPGKERELVAGIDSSGTSTYYADSVKGRFTISRDNAKNTVYLQMNRLKPEDTAVYYCIVVANWKDTSTELDYWGQGTQVTVSS    low polyreactivity
